Each recorded value in this set is attributed to paper PMC4258421.

- System: UGTs in human liver microsomes pooled from 150 donors (HLM150)
- Format: in vitro ADME
- CONDITION_NOTES: read-out: Km for the microsomal reaction; glucuronidation at the C7 hydroxyl group; HLM150
QUANTITY_NAME: Km (µM)

>  <COMPOUND>
CC(=O)C[C@@H](c1ccccc1)c1c(O)c2ccc(O)cc2oc1=O [S-7-OHWAR, S-7-hydroxywarfarin]

>  <OUTPUT_UNIT>
µM

>  <RESULT_NUMBER>
927

$$$$
>  <COMPOUND>
CC(=O)C[C@H](c1ccccc1)c1c(O)c2ccc(O)cc2oc1=O [R-7-HOWAR, R-7-hydroxywarfarin]

>  <OUTPUT_UNIT>
µM

>  <RESULT_NUMBER>
121

$$$$
